# pIC50 listing for each entry below
- Test system: Her2-positive human BT474 breast tumor cells
- ASSAY DETAILS: Cytotoxicity assay (growth inhibition, CellTiter-Glo) on BT474
- MEASUREMENT SETUP: Homo sapiens, BT-474, 120 h, read-out: Cytotoxicity assay IC50 BT474, BT474 cells, 120 hours, CellTiter-Glo
When answering, recall that pIC50 equals minus log10 of the concentration in mol/L, and write that number alone.

Below, 3 compounds whose answers are already recorded.
[[record]]
compound = "COc1cc2cc(c1Cl)N(C)C(=O)C[C@H](OC(=O)[C@H](C)OCCOCCSSC)[C@]1(C)O[C@H]1[C@H](C)[C@@H]1C[C@@](O)(NC(=O)O1)[C@H](OC)/C=C/C=C(\\C)C2"
value_observed = 7.92

[[record]]
compound = "COc1cc2cc(c1Cl)N(C)C(=O)C[C@H](OC(=O)[C@H]1CC[C@H](CSSC)CC1)[C@]1(C)O[C@H]1[C@H](C)[C@@H]1C[C@@](O)(NC(=O)O1)[C@H](OC)/C=C/C=C(\\C)C2"
value_observed = 8.12

[[record]]
compound = "COc1cc2cc(c1Cl)N(C)C(=O)C[C@H](OC(=O)[C@H](C)N(C)C(=O)CCC(C)(C#N)SSC)[C@]1(C)O[C@H]1[C@H](C)[C@@H]1C[C@@](O)(NC(=O)O1)[C@H](OC)/C=C/C=C(\\C)C2 (stereo partly drawn)"
value_observed = 7.19


Query :: Recorded pIC50 of COc1cc2cc(c1Cl)N(C)C(=O)C[C@H](OC(=O)[C@H](C)N(C)C(CCSC1CC(=O)N(C[C@H]3CC[C@H](C(=O)ON4C(=O)CCC4=O)CC3)C1=O)C(F)(F)F)[C@]1(C)O[C@H]1[C@H](C)C1C[C@@](O)(NC(=O)O1)[C@H](OC)/C=C/C=C(\C)C2 (stereo partly drawn) , please.
Result :: 6.79

Query :: For the compound shown here, COc1cc2cc(c1Cl)N(C)C(=O)C[C@H](OC(=O)[C@H]1CC[C@H](CSC3CC(=O)N(C[C@H]4CC[C@H](C(=O)ON5C(=O)CCC5=O)CC4)C3=O)CC1)[C@]1(C)O[C@H]1[C@H](C)C1C[C@@](O)(NC(=O)O1)[C@H](OC)/C=C/C=C(\C)C2 (stereo partly drawn) , give the reported pIC50.
Result :: 8.09

Query :: Entry COc1cc2cc(c1Cl)N(C)C(=O)C[C@H](OC(=O)[C@H](C)N(C)[C@@H](CCSSC)C(F)(F)F)[C@]1(C)O[C@H]1[C@H](C)[C@@H]1C[C@@](O)(NC(=O)O1)[C@H](OC)/C=C/C=C(\C)C2 (single isomer, unassigned) has what pIC50?
Result :: 9.07

Query :: # pIC50 lookup, item COc1cc2cc(c1Cl)N(C)C(=O)CC(OC(=O)[C@@H](C)N(C)C(=O)CCC(C)(C#N)SSC)[C@]1(C)O[C@H]1[C@H](C)[C@@H]1C[C@@](O)(NC(=O)O1)[C@H](OC)/C=C/C=C(\C)C2 (stereo partly drawn)
Result :: 7.38

====

- Tested on: Her2-positive human BT474 breast tumor cells
- ASSAY DETAILS: Cytotoxicity assay (growth inhibition, CellTiter-Glo) on BT474
- MEASUREMENT SETUP: Homo sapiens, BT-474, 120 h, read-out: Cytotoxicity assay IC50 BT474, BT474 cells, 120 hours, CellTiter-Glo
PROPERTY MEASURED: IC50 (µM)
Answer in µM, number only, no unit symbol.

[[record]]
compound = "COc1cc2cc(c1Cl)N(C)C(=O)C[C@H](OC(=O)[C@H](C)OCCOCCOCCOCCOCCOCCNC(=O)CBr)[C@]1(C)O[C@H]1[C@H](C)C1C[C@@](O)(NC(=O)O1)[C@H](OC)/C=C/C=C(\\C)C2 [CE-052a]"
unit_text = "µM"
value_observed = 0.0331

[[record]]
compound = "COc1cc2cc(c1Cl)N(C)C(=O)C[C@H](OC(=O)[C@H](C)OCCOCCOCC(=O)ON1C(=O)CCC1=O)[C@]1(C)O[C@H]1[C@H](C)C1C[C@@](O)(NC(=O)O1)[C@H](OC)/C=C/C=C(\\C)C2 [CE-045]"
unit_text = "µM"
value_observed = 0.133

[[record]]
compound = "COc1cc2cc(c1Cl)N(C)C(=O)C[C@H](OC(=O)[C@@H](C)N(C)C(=O)CCS)C1(C)O[C@H]1[C@H](C)C1C[C@@](O)(NC(=O)O1)[C@H](OC)/C=C/C=C(\\C)C2 (stereo partly drawn) [DM1, reference compound]"
unit_text = "µM"
value_observed = 0.021

[[record]]
compound = "COc1cc2cc(c1Cl)N(C)C(=O)C[C@H](OC(=O)C(COCCCSSC)OC)[C@]1(C)O[C@H]1[C@H](C)C1C[C@@](O)(NC(=O)O1)[C@H](OC)/C=C/C=C(\\C)C2 (single isomer, unassigned) [CE-054-1]"
unit_text = "µM"
value_observed = 0.01

[[record]]
compound = "COc1cc2cc(c1Cl)N(C)C(=O)C[C@H](OC(=O)[C@H](C)OCCSSC)[C@]1(C)O[C@H]1[C@H](C)[C@@H]1C[C@@](O)(NC(=O)O1)[C@H](OC)/C=C/C=C(\\C)C2 [CE-026]"
unit_text = "µM"
value_observed = 0.014

[[record]]
compound = "COc1cc2cc(c1Cl)N(C)C(=O)C[C@H](OC(=O)[C@H](C)OCCCSSC)[C@]1(C)O[C@H]1[C@H](C)[C@@H]1C[C@@](O)(NC(=O)O1)[C@H](OC)/C=C/C=C(\\C)C2 [CE-027]"
unit_text = "µM"
value_observed = 0.015

[[record]]
compound = "COc1cc2cc(c1Cl)N(C)C(=O)CC(OC(=O)[C@@H](C)N(C)C(=O)CCC(SSC)C(C)C)[C@]1(C)O[C@H]1[C@H](C)[C@@H]1C[C@@](O)(NC(=O)O1)[C@H](OC)/C=C/C=C(\\C)C2 (stereo partly drawn) [CE-021]"
unit_text = "µM"
value_observed = 0.0639

[[record]]
compound = "COc1cc2cc(c1Cl)N(C)C(=O)C[C@H](OC(=O)C1CCC(CSSC)OC1)[C@]1(C)O[C@H]1[C@H](C)C1C[C@@](O)(NC(=O)O1)[C@H](OC)/C=C/C=C(\\C)C2 (stereo partly drawn) [CE-053-1]"
unit_text = "µM"
value_observed = 0.022


Attention now turns to another entry.
Query :: Which measured IC50 belongs to COc1cc2cc(c1Cl)N(C)C(=O)C[C@H](OC(=O)[C@H](C)N(C)C(CCSSC)C(F)(F)F)[C@]1(C)O[C@H]1[C@H](C)[C@@H]1C[C@@](O)(NC(=O)O1)[C@H](OC)/C=C/C=C(\C)C2 (stereo partly drawn) [CE-011] , tested on Her2-positive human BT474 breast tumor cells?
Result :: 0.0012

Values compiled from patent US10449258B2.
